These measurements were taken from patent US20110002843A1.

method-notes: Single-dose pharmacokinetics, safety and tolerability of 10-minute intravenous infusion in healthy volunteers
Format: in vivo, human
test-conditions: human, plasma, 6 ug/kg; 6 μg/kg iv over 10 minutes; read-out: Vz, mean (SD)
measured-quantity: Vd (L/kg)
Report the value in L/kg with no unit label.

Query block: I am curious: what Vd value has been reported for Nc1nc(N/N=C/C2CCCCC2)nc2c1ncn2[C@@H]1O[C@H](CO)[C@@H](O)[C@H]1O (stereo in doubt) ?
Result block: 0.7

----------
method-notes: Single-dose pharmacokinetics, safety and tolerability of 10-minute intravenous infusion in healthy volunteers
Assay type: in vivo, human
test-conditions: human, 3 ug/kg; plasma, 3 μg/kg iv over 10 minutes; read-out: Cmax, mean (SD)
measured-quantity: Cmax

Query block: I would be grateful if you could share the reported Cmax for Nc1nc(N/N=C/C2CCCCC2)nc2c1ncn2[C@@H]1O[C@H](CO)[C@@H](O)[C@H]1O (stereo in doubt) .
Result block: 6.2 ng/mL
